FYI, the data here is from ChEMBL document CHEMBL4376846.

For each entry below, report its inhibition value.
- assay-system: Genome polyprotein (West Nile virus)
- experiment-summary: Inhibition of West Nile virus NS2B-NS3 protease at 50 uM using 2-Abz-Nle-Lys-Arg-Arg-Ser-(3-NO2)-Tyr-NH2 FRET substrate preincubated for 15 mins followed by substrate addition measured after 15 mins by fluorimetric analysis relative to control
Answer in %, number only, no unit symbol.

For record NCCCC[C@H](NC(=O)c1ccccc1)C(=O)N[C@@H](CCCCN)C(=O)N[C@@H]1CN(c2ccccc2)C1=O the listed inhibition is 51.7

For record N=C(N)NCCC[C@H](NC(=O)c1ccccc1)C(=O)N[C@@H](CCCCN)C(=O)N[C@@H](C(=O)N[C@H]1CN(c2ccc(F)cc2)C1=O)c1ccc(OCc2ccccc2)cc1 the listed inhibition is 60.9

For record Cc1ccc(N2C[C@@H](NC(=O)[C@H](NC(=O)[C@H](CCCCN)NC(=O)[C@H](CCCNC(=N)N)NC(=O)c3ccccc3)c3ccc(OCc4ccccc4)cc3)C2=O)cc1 the listed inhibition is 52.9

For record N=C(N)NCCC[C@H](NC(=O)c1ccccc1)C(=O)N[C@@H](CCCCN)C(=O)N[C@@H](C(=O)N[C@@H]1CN(c2ccc(F)cc2)C1=O)c1ccc(OCc2ccccc2)cc1 the listed inhibition is 43.4

---

- assay-system: Genome polyprotein (West Nile virus)
- experiment-summary: Inhibition of West Nile virus NS2B-NS3 protease at 50 uM using 2-Abz-Nle-Lys-Arg-Arg-Ser-(3-NO2)-Tyr-NH2 FRET substrate preincubated for 15 mins followed by substrate addition measured after 15 mins by fluorimetric analysis relative to control
observable: inhibition

// assay Genome polyprotein (West Nile virus), entry NCCCC[C@H](NC(=O)c1ccccc1)C(=O)N[C@@H](CCCCN)C(=O)N[C@H]1CN(c2ccccc2)C1=O , inhibition value = < 20%

// assay Genome polyprotein (West Nile virus), entry CCCC[C@H](NC(=O)[C@H](CCCCN)NC(=O)c1ccccc1)C(=O)N[C@H]1CN(c2ccccc2)C1=O , inhibition value = < 20%

// assay Genome polyprotein (West Nile virus), entry N=C(N)NCCC[C@H](NC(=O)[C@H](CCCCN)NC(=O)c1ccccc1)C(=O)N[C@H]1CN(c2ccccc2)C1=O , inhibition value = < 20%
